# System Tested: recombinant SARS-CoV-2 Main protease (Mpro) (Severe acute respiratory syndrome coronavirus 2 (2019-nCoV) (SARS-CoV-2))
# Assay Explanation: Cov Mpro Biochemical IC50 Assay
# Condition Description: recombinant SARS-CoV-2 Mpro 7.5 nM, fluorogenic peptide substrate 40 μM; read-out: MPro IC50
pIC50: −log10 of the molar value.
Decision: pIC50 compared against 8; not below it gives YES, below it gives NO.

[[record]]
molecule = "Cc1c2c(-n3c(=O)c4sc(-c5ccccc5C#N)cc4n(CCC#N)c3=O)cncc2nn1C [Example 896]"
class_name = "NO"

[[record]]
molecule = "COc1cc(-c2cc3c(s2)c(=O)n(-c2cncc4cnn(C)c24)c(=O)n3CC#N)c(C#N)cc1F [Example 693]"
class_name = "YES"

[[record]]
molecule = "COc1cc(-c2cc3c(s2)c(=O)n(-c2cncc4c2c(C)nn4C)c(=O)n3CCC#N)c(Cl)cc1F (single isomer, unassigned) [Example 1043]"
class_name = "NO"

[[record]]
molecule = "Cc1nc2cncc(-n3c(=O)c4sc(-c5ccc(F)cc5Cl)cc4n(CCC#N)c3=O)c2n1C (single isomer, unassigned) [Example 965]"
class_name = "NO"

[[record]]
molecule = "COc1cc(-c2cc3c(s2)c(=O)n(-c2cncc4cn[nH]c24)c(=O)n3CCC#N)c(Cl)cc1F [Example 1047]"
class_name = "YES"

[[record]]
molecule = "N#Cc1ccc(Cl)c(-c2cc3[nH]c(=O)n(-c4cncc5ccccc45)c(=O)c3s2)c1 [Example 545]"
class_name = "NO"

[[record]]
molecule = "COc1cc(-c2cc3c(s2)c(=O)n(-c2cncc4cnn(C)c24)c(=O)n3CC#N)c(Cl)cc1F (single isomer, unassigned) [Example 1012]"
class_name = "YES"

[[record]]
molecule = "O=c1[nH]c2cc(-c3ccccc3Cl)sc2c(=O)n1-c1cncc2c(Cl)cccc12 [Example 592]"
class_name = "NO"

[[record]]
molecule = "Cc1ccc(C#N)cc1-c1cc2c(s1)c(=O)n(-c1cncc3ccccc13)c(=O)n2CCC#N [Example 810]"
class_name = "NO"

[[record]]
molecule = "COc1cc(-c2cc3[nH]c(=O)n(-c4cncc5cnn(C)c45)c(=O)c3cc2F)c(C#N)cc1F [Example 766]"
class_name = "NO"


====

# Tested on: SARS-CoV-2-NLuc
# Assay Explanation: microbe, parasite or virus in culture
# Type: cell-based, SARS Coronavirus 2
# Condition Description: Severe acute respiratory syndrome coronavirus, 48 h; read-out: MPro EC50
pEC50: −log10 of the molar value.
# reported pEC50; entries follow
Endpoint: pEC50

[[record]]
compound = "COc1cncc(-n2c(=O)c3sc(-c4ccccc4C#N)cc3n(CCC#N)c2=O)c1 [Example 814]"
numeric_value = 6.87

[[record]]
compound = "N#CCCn1c(=O)n(-c2cncc(C3CC4(COC4)C3)c2)c(=O)c2sc(-c3ccccc3Cl)cc21 [Example 1064]"
numeric_value = 6.15

[[record]]
compound = "COc1cc(-c2cc3[nH]c(=O)n(-c4cc(C(F)(F)F)cnn4)c(=O)c3s2)c(Cl)cc1F [Example 748]"
numeric_value = 7.06

[[record]]
compound = "O=c1[nH]c2cc(-c3c(Cl)cccc3Cl)ccc2c(=O)n1-c1cncc2ccccc12 [Example 95]"
numeric_value = 6.17


====

# System Tested: recombinant SARS-CoV-2 Main protease (Mpro) (Severe acute respiratory syndrome coronavirus 2 (2019-nCoV) (SARS-CoV-2), UniProt P0DTD1)
# Assay Explanation: Cov Mpro Biochemical IC50 Assay
# Condition Description: recombinant SARS-CoV-2 Mpro 7.5 nM, fluorogenic peptide substrate 40 μM; read-out: MPro IC50
Endpoint: IC50 (nM)

[[record]]
compound = "COc1cc(-c2cc3[nH]c(=O)n(-c4cncc5cccnc45)c(=O)c3cc2OC)c(C#N)cc1F [Example 684]"
readout_unit = "nM"
numeric_value = 13.5

[[record]]
compound = "COc1cc(-c2cc3c(s2)c(=O)n(-c2cncc4ccsc24)c(=O)n3CC#N)c(Cl)cc1F [Example 653]"
readout_unit = "nM"
numeric_value = 2.58

[[record]]
compound = "COc1cc(-c2cc3c(s2)c(=O)n(-c2cncc(C)c2Cl)c(=O)n3CCC#N)c(Cl)cc1F [Example 944]"
readout_unit = "nM"
numeric_value = 6.67

[[record]]
compound = "COc1ccc(-c2cc(C)c3ncnn3c2)c(-c2ccc3c(=O)n(-c4cncc5ccccc45)c(=O)[nH]c3c2)c1 [Example 568]"
readout_unit = "nM"
numeric_value = 5670

[[record]]
compound = "Cc1ncc(-c2cccc(Cl)c2-c2cc3[nH]c(=O)n(-c4cncc5ccccc45)c(=O)c3s2)n1C [Example 521]"
readout_unit = "nM"
numeric_value = 14.9

[[record]]
compound = "COc1cc(-c2cc3c(s2)c(=O)n(-c2cc(C)cnn2)c(=O)n3CCC#N)c(Cl)cc1F [Example 931]"
readout_unit = "nM"
numeric_value = 2.53

[[record]]
compound = "COc1cc(-c2cc3[nH]c(=O)n(-c4cncc5[nH]nc(C(F)(F)F)c45)c(=O)c3s2)c(Cl)cc1F [Example 1045]"
readout_unit = "nM"
numeric_value = 141

[[record]]
compound = "COc1cc(-c2cc3[nH]c(=O)n(-c4cncc5cnn(C)c45)c(=O)c3s2)c(C)cc1F [Example 657]"
readout_unit = "nM"
numeric_value = 14.4

[[record]]
compound = "COc1cc(-c2cc(OC)c3c(=O)n(-c4cncc5ccccc45)c(=O)[nH]c3c2)c(C#N)cc1F [Example 680]"
readout_unit = "nM"
numeric_value = 21.7

[[record]]
compound = "O=c1[nH]c2cc(-c3c(Cl)cccc3C3=CCOCC3)sc2c(=O)n1-c1cncc2ccccc12 [Example 522]"
readout_unit = "nM"
numeric_value = 9.84


====

# System Tested: recombinant SARS-CoV-2 Main protease (Mpro) (Severe acute respiratory syndrome coronavirus 2 (2019-nCoV) (SARS-CoV-2), UniProt P0DTD1)
# Assay Explanation: Cov Mpro Biochemical IC50 Assay
# Condition Description: recombinant SARS-CoV-2 Mpro 7.5 nM, fluorogenic peptide substrate 40 μM; read-out: MPro IC50
# strict inequality: IC50 < 20 nM yields T, everything else yields F

[[record]]
compound = "COc1cc(Cl)c(-c2cc3c(s2)c(=O)n(-c2cncc4cnn(C)c24)c(=O)n3CCC#N)cc1F"
class_name = "T"

[[record]]
compound = "N#CCCn1c(=O)n(-c2cccnc2)c(=O)c2sc(-c3ccccc3Cl)cc21"
class_name = "T"

[[record]]
compound = "COc1ccc(C#N)c(-c2cc3[nH]c(=O)n(-c4cncc5nc(C67CC(F)(C6)C7)n(C)c45)c(=O)c3s2)c1"
class_name = "F"

[[record]]
compound = "COc1cc(-c2cc3c(s2)c(=O)n(-c2cncc4cccc(F)c24)c(=O)n3CCC#N)c(Cl)cc1F"
class_name = "T"

[[record]]
compound = "COc1ccc(Cl)c(-c2cc3[nH]c(=O)n(-c4cncc5ccc(C)nc45)c(=O)c3s2)c1"
class_name = "T"

[[record]]
compound = "COc1cc(-c2cc3[nH]c(=O)n(-c4cncc5cccc(F)c45)c(=O)c3s2)c(Cl)cc1F [Example 444]"
class_name = "T"

[[record]]
compound = "N#CCCn1c(=O)n(-c2cncc(F)c2)c(=O)c2sc(-c3ccc(F)cc3Cl)cc21"
class_name = "F"

[[record]]
compound = "Cn1ncc2cncc(-n3c(=O)c4sc(-c5cc(F)c(F)cc5Cl)cc4n(CCC#N)c3=O)c21 (single isomer, unassigned) [Example 1076]"
class_name = "T"

[[record]]
compound = "COc1cc(-c2cc3[nH]c(=O)n(-c4cncc5ccn(C)c(=O)c45)c(=O)c3s2)c(Cl)cc1F"
class_name = "T"

[[record]]
compound = "COc1cc(-c2cc3c(s2)c(=O)n(-c2cncc4c2c(C)nn4CC(F)(F)F)c(=O)n3CCC#N)c(Cl)cc1F"
class_name = "F"

[[record]]
compound = "N#Cc1ccncc1-c1cc2[nH]c(=O)n(-c3cncc4ccccc34)c(=O)c2s1"
class_name = "F"


====

# System Tested: recombinant SARS-CoV-2 Main protease (Mpro) (Severe acute respiratory syndrome coronavirus 2 (2019-nCoV) (SARS-CoV-2))
# Assay Explanation: Cov Mpro Biochemical IC50 Assay
# Condition Description: recombinant SARS-CoV-2 Mpro 7.5 nM, fluorogenic peptide substrate 40 μM; read-out: MPro IC50
Endpoint: IC50

[[record]]
compound = "Cn1cncc1-c1cccc(Cl)c1-c1cc2[nH]c(=O)n(-c3cncc4ccccc34)c(=O)c2s1 [Example 525]"
result = "10.4 nM"

[[record]]
compound = "COc1cc(-c2cc3[nH]c(=O)n(-c4cncc5c4n(C)c(=O)n5C)c(=O)c3s2)c(Cl)cc1F [Example 750]"
result = "7.76 nM"

[[record]]
compound = "O=c1[nH]c2cc(-c3ccccc3Cl)sc2c(=O)n1-c1cncc2c1OCCC2 [Example 588]"
result = "14.8 nM"

